Source listed as patent US20210292393A1.

# median fold over isotype values compiled below
# TARGET_UNDER_TEST: SARS-CoV-2 full length spike protein, V483A mutant (SARS-CoV-2, UniProt P0DTC2 14-1273)
MEASURED_METRIC: median fold over isotype (fold over isotype)

{"BINDER": "antibody 522 (antibody, V domains shown) VH: EVQLVESGGGLVQPGGSLRLSCAASGFNFSSYSMNWVRQAPGKGLEWVSYISSSSSTIYYADSVKGRFTISRDNAKNSLYLQMNSLRDEDTAVYYCARGPEWDIVVVQAENWFDPWGQGTLVTVSS VL: SYELTQPPSVSVSPGQTARITCSGDALPKQYVYWYQQKPGQAPVLVIYKDSERPSGIPERFSGSSSGTTVTLTISGVQAEDEADYYCQSADSSGTYRGVFGGGTKLTVL", "EXPERIMENTAL_VALUE": 6.75}
{"BINDER": "antibody 523 (antibody, V domains shown) VH: EVQLVESGGVSVQPGGSLRLSCAASGFSFNTYDMHWVRQGTGKGLEWVSGIGTAGDTYYSDSVKGRCTISRDNAKNSLHLLVKSVRAADTAVYYCARGVGGIIDYWGQGTLVTVSS VL: NFVLSQPHSVSESPGKTVTISCTGNSGSIATKYVQWFQQRPGSAPTTVIYEDNQRPSGVPDRFSGSSDSSSNSASLTISGLKTEDEAHYYCQSYHNRRWVFGGGTKLTVL", "EXPERIMENTAL_VALUE": 3.76}
{"BINDER": "antibody 546 (antibody, V domains shown) VH: QVQLVESGGGVVQPGRSLRLSCAASGFTFSSYGMHWVRQAPGKGLEWVAVIWYDGSNKYYADSVKGRFTISRDNSKNTLYLQMNSLRAEDTAVYYCARNCGGDCVAGDGFDYWGQGTLVTVSS VL: DIQMTQSPSSLSASVGDRVTITCRASQSISSYLNWYQQKPGKAPNLLIYAASSLQSGVPSRFSGSGSGTDFTLTISSLQPEDFATYYCQQSYSALTWTFGQGTKVEIK", "EXPERIMENTAL_VALUE": 18.9}
{"BINDER": "antibody 527 (antibody, V domains shown) VH: QLQLQESGPGLVKPSETLSLTCTVSGGSISSSSYYWGWIRQPPGKGLEWIGSIYYSGSTYYNPSLKSRVTISVDTSKNQFSLKLSSVTAADTAMYYCASHVVVIASSYWCFDLWGRGTLVTVSS VL: QSALTQPASVSGSPGQSITISCTGTSSDVGGYNYVSWYQQHPGKAPKLMIYDVSNRPSGVSNRFSGSKSGNTASLTISGLQAEDEADYYCSSYTSISTWVFGGGTKLTVL", "EXPERIMENTAL_VALUE": 7.97}
